# Target Or Test System: UniProt:Q12809
# Sequence (Q12809 whole entry): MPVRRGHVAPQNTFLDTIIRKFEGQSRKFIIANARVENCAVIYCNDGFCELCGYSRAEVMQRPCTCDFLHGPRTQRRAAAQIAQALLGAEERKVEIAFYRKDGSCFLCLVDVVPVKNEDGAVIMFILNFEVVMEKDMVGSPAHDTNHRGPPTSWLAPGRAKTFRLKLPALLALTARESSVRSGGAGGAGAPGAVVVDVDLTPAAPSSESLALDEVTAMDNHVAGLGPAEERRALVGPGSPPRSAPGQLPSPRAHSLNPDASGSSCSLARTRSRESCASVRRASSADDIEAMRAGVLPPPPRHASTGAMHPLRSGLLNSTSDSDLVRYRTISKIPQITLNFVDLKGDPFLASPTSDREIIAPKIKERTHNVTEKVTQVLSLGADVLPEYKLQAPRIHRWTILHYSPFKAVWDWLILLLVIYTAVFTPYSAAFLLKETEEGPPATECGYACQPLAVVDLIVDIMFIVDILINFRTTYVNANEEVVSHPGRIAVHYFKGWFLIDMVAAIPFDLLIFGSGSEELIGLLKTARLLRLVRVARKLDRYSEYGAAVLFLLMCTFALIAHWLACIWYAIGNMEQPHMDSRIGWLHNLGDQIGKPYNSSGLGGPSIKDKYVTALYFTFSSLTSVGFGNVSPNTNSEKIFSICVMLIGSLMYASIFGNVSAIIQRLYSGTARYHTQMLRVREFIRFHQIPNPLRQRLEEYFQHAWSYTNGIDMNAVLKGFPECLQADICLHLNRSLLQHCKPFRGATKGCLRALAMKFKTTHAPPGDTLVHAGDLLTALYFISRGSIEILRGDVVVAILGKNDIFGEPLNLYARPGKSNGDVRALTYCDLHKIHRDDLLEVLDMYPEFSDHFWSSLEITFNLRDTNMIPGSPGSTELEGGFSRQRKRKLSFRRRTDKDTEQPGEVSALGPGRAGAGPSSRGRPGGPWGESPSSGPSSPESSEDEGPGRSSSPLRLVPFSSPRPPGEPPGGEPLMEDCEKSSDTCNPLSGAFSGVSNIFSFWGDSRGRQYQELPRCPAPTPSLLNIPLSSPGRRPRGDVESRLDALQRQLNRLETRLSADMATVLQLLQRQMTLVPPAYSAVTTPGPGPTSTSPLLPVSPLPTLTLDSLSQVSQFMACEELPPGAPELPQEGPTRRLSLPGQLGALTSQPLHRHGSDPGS
Readout Label: IC50
# include the unit after the value

Q. Quick one: IC50 of O=C1N(CC2CCCCN2)CCN1c1cccc(Cl)c1 (stereo unspecified) ?
A. 7.94 µM

----------
pEC50 values by entry
# Target Or Test System: D(2) dopamine receptor (Homo sapiens)
# Sequence (P14416 whole entry): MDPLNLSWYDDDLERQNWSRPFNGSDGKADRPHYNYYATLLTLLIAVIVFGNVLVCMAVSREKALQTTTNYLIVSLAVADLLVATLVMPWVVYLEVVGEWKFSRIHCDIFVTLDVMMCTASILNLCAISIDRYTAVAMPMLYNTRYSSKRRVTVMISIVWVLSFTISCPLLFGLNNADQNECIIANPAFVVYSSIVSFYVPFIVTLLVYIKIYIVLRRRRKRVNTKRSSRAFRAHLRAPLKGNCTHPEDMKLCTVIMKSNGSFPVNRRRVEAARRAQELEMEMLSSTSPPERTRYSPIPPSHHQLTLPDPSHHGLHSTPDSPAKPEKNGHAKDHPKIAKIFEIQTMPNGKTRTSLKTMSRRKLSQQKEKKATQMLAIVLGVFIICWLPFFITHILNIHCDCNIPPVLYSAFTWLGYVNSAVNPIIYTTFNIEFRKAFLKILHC
# Measurement Description: Partial agonistic activity at human dopamine D2 receptor expressed in CHO cells by assay [35S]GTPgamma assay with scintillation proximity affinity assay
Lab note: report pEC50 as minus log10 of the concentration in molar units, number only.

See these solved cases before continuing.
{"columns": ["Compound", "Value Reported"],
 "data": [
  ["Cc1cccc(N2CCN(CCN3CCCCCC3)C2=O)c1", 8.00],
  ["CN1CCCCC1CN1CCN(c2cccc(Cl)c2)C1=O (stereo unspecified)", 8.60]
]}

Q. Quick one: pEC50 of O=C1N(CC2CCCCN2)CCN1c1cccc(Cl)c1 (stereo unspecified) ?
A. 9.20
